Data provenance is the supplement of paper PMC10307832.

Hi there, I'd appreciate the recorded relative viability for every entry that follows.
Test system: H3255
test_name: relative viability (nuclei count vs DMSO), 5 days (fraction); higher = more cells survive
condition_set: first compound 0.006325 µM

### Prompt Supply recorded relative viability for CC(=O)O[C@@]12CO[C@@H]1C[C@H](O)[C@@]1(C)C(=O)[C@H](O)C3=C(C)[C@@H](OC(=O)[C@H](O)[C@@H](NC(=O)OC(C)(C)C)c4ccccc4)C[C@@](O)([C@@H](OC(=O)c4ccccc4)[C@H]21)C3(C)C [Docetaxel] + C[C@]1(O)C[C@@H](c2nc(-c3ccc4ccc(-c5ccccc5)nc4c3)c3c(N)nccn32)C1 [Linsitinib] (partner 1 µM) here.
### Response 0.223

### Prompt Supply recorded relative viability for CC(=O)O[C@@]12CO[C@@H]1C[C@H](O)[C@@]1(C)C(=O)[C@H](O)C3=C(C)[C@@H](OC(=O)[C@H](O)[C@@H](NC(=O)OC(C)(C)C)c4ccccc4)C[C@@](O)([C@@H](OC(=O)c4ccccc4)[C@H]21)C3(C)C [Docetaxel] + NC(=O)Nc1cc(-c2cccc(F)c2)sc1C(=O)N[C@H]1CCCNC1 [AZD7762] (partner 0.2 µM) here.
### Response 0.288

### Prompt Supply recorded relative viability for CC(=O)O[C@@]12CO[C@@H]1C[C@H](O)[C@@]1(C)C(=O)[C@H](O)C3=C(C)[C@@H](OC(=O)[C@H](O)[C@@H](NC(=O)OC(C)(C)C)c4ccccc4)C[C@@](O)([C@@H](OC(=O)c4ccccc4)[C@H]21)C3(C)C [Docetaxel] + COc1cc2c(Oc3ccc(NC(=O)C4(C(=O)Nc5ccc(F)cc5)CC4)cc3F)ccnc2cc1OCCCN1CCOCC1 [Foretinib] (partner 0.25 µM) here.
### Response 0.335

### Prompt Supply recorded relative viability for CC(=O)O[C@@]12CO[C@@H]1C[C@H](O)[C@@]1(C)C(=O)[C@H](O)C3=C(C)[C@@H](OC(=O)[C@H](O)[C@@H](NC(=O)OC(C)(C)C)c4ccccc4)C[C@@](O)([C@@H](OC(=O)c4ccccc4)[C@H]21)C3(C)C [Docetaxel] + CCNC(=O)c1noc(-c2cc(C(C)C)c(O)cc2O)c1-c1ccc(CN2CCOCC2)cc1 [Luminespib] (partner 0.01 µM) here.
### Response 0.157

----------
Tested on: NCI-H322M
test_name: relative viability (nuclei count vs DMSO), 5 days (fraction); higher = more cells survive
condition_set: first compound 0.253 µM
Hi there, I'd appreciate the recorded relative viability for every entry that follows.
Respond using a number only.

### Prompt Supply recorded relative viability for O=c1[nH]c2ccccc2n1C1CCN(CCCC(c2ccc(F)cc2)c2ccc(F)cc2)CC1 [Pimozide] + CC(=O)c1c(C)c2cnc(Nc3ccc(N4CCNCC4)cn3)nc2n(C2CCCC2)c1=O [Palbociclib] (partner 0.5 µM) here.
### Response 0.475

### Prompt Supply recorded relative viability for Cc1cnc(-c2cnc(NCCNc3ccc(C#N)cn3)nc2-c2ccc(Cl)cc2Cl)[nH]1 + NC(=O)Nc1cc(-c2cccc(F)c2)sc1C(=O)N[C@H]1CCCNC1 [AZD7762] (partner 0.2 µM) here.
### Response 0.546

### Prompt Supply recorded relative viability for O=c1[nH]c2ccccc2n1C1CCN(CCCC(c2ccc(F)cc2)c2ccc(F)cc2)CC1 [Pimozide] + Cc1nc(Nc2ncc(C(=O)Nc3c(C)cccc3Cl)s2)cc(N2CCN(CCO)CC2)n1 [Dasatinib] (partner 0.075 µM) here.
### Response 0.234

### Prompt Supply recorded relative viability for Cc1cnc(-c2cnc(NCCNc3ccc(C#N)cn3)nc2-c2ccc(Cl)cc2Cl)[nH]1 + Cc1nc(NC(=O)N2CCC[C@H]2C(N)=O)sc1-c1ccnc(C(C)(C)C(F)(F)F)c1 [Alpelisib] (partner 2 µM) here.
### Response 0.754

### Prompt Supply recorded relative viability for Cc1cnc(-c2cnc(NCCNc3ccc(C#N)cn3)nc2-c2ccc(Cl)cc2Cl)[nH]1 + Nc1nc2[nH]cc(CCc3ccc(C(=O)N[C@@H](CCC(=O)O)C(=O)O)cc3)c2c(=O)[nH]1 [Pemetrexed] (partner 0.2 µM) here.
### Response 0.584

----------
System: LK-2
test_name: relative viability (nuclei count vs DMSO), 5 days (fraction); higher = more cells survive
condition_set: first compound 500 µM
# note: boundary value 0.3 maps to false (0); relative viability below it maps to true (1)

### Prompt Below 0.3 on relative viability? Entry O=C(O)CCCCC(CCSCc1ccccc1)SCc1ccccc1 (configuration not stated) [CPI-613] + O=C(c1cc(Cc2n[nH]c(=O)c3ccccc23)ccc1F)N1CCN(C(=O)C2CC2)CC1 [Olaparib] (partner 8 µM)
### Response false (0)

### Prompt Below 0.3 on relative viability? Entry O=C(O)CCCCC(CCSCc1ccccc1)SCc1ccccc1 (configuration not stated) [CPI-613] + Nc1ncn([C@H]2C[C@H](O)[C@@H](CO)O2)c(=O)n1 [Decitabine] (partner 2 µM)
### Response true (1)

### Prompt Below 0.3 on relative viability? Entry O=C(O)CCCCC(CCSCc1ccccc1)SCc1ccccc1 (configuration not stated) [CPI-613] + Nc1nc2[nH]cc(CCc3ccc(C(=O)N[C@@H](CCC(=O)O)C(=O)O)cc3)c2c(=O)[nH]1 [Pemetrexed] (partner 0.2 µM)
### Response true (1)

### Prompt Below 0.3 on relative viability? Entry O=C(O)CCCCC(CCSCc1ccccc1)SCc1ccccc1 (configuration not stated) [CPI-613] + N=C(N)NC(=N)NCCc1ccccc1 [Phenformin] (partner 250 µM)
### Response true (1)

### Prompt Below 0.3 on relative viability? Entry O=C(O)CCCCC(CCSCc1ccccc1)SCc1ccccc1 (configuration not stated) [CPI-613] + CC(=O)c1c(C)c2cnc(Nc3ccc(N4CCNCC4)cn3)nc2n(C2CCCC2)c1=O [Palbociclib] (partner 0.5 µM)
### Response false (0)

### Prompt Below 0.3 on relative viability? Entry O=C(O)CCCCC(CCSCc1ccccc1)SCc1ccccc1 (configuration not stated) [CPI-613] + CC1(C)CCC(c2ccc(Cl)cc2)=C(CN2CCN(c3ccc(C(=O)NS(=O)(=O)c4ccc(N[C@H](CCN5CCOCC5)CSc5ccccc5)c(S(=O)(=O)C(F)(F)F)c4)cc3)CC2)C1 [Navitoclax] (partner 0.5 µM)
### Response false (0)

### Prompt Below 0.3 on relative viability? Entry O=C(O)CCCCC(CCSCc1ccccc1)SCc1ccccc1 (configuration not stated) [CPI-613] + COc1cc2c(Oc3ccc(NC(=O)C4(C(=O)Nc5ccc(F)cc5)CC4)cc3F)ccnc2cc1OCCCN1CCOCC1 [Foretinib] (partner 0.25 µM)
### Response true (1)

----------
Test system: LCLC-103H
test_name: relative viability (nuclei count vs DMSO), 5 days (fraction); higher = more cells survive
condition_set: first compound 1.265 µM
# note: boundary value 0.4 maps to not met; relative viability below it maps to met

### Prompt Below 0.4 on relative viability? Entry Cc1sc2c(c1C)C(c1ccc(Cl)cc1)=N[C@@H](CC(=O)OC(C)(C)C)c1nnc(C)n1-2 [JQ1] + CC(C)C[C@H](NC(=O)[C@H](Cc1ccccc1)NC(=O)c1cnccn1)B(O)O [Bortezomib] (partner 0.002 µM)
### Response not met

### Prompt Below 0.4 on relative viability? Entry Cc1sc2c(c1C)C(c1ccc(Cl)cc1)=N[C@@H](CC(=O)OC(C)(C)C)c1nnc(C)n1-2 [JQ1] + C[C@]1(O)C[C@@H](c2nc(-c3ccc4ccc(-c5ccccc5)nc4c3)c3c(N)nccn32)C1 [Linsitinib] (partner 1 µM)
### Response not met

### Prompt Below 0.4 on relative viability? Entry Cc1sc2c(c1C)C(c1ccc(Cl)cc1)=N[C@@H](CC(=O)OC(C)(C)C)c1nnc(C)n1-2 [JQ1] + O=C(c1cc(Cc2n[nH]c(=O)c3ccccc23)ccc1F)N1CCN(C(=O)C2CC2)CC1 [Olaparib] (partner 8 µM)
### Response not met

### Prompt Below 0.4 on relative viability? Entry Cc1sc2c(c1C)C(c1ccc(Cl)cc1)=N[C@@H](CC(=O)OC(C)(C)C)c1nnc(C)n1-2 [JQ1] + CC(=O)c1c(C)c2cnc(Nc3ccc(N4CCNCC4)cn3)nc2n(C2CCCC2)c1=O [Palbociclib] (partner 0.5 µM)
### Response not met

### Prompt Below 0.4 on relative viability? Entry Cc1sc2c(c1C)C(c1ccc(Cl)cc1)=N[C@@H](CC(=O)OC(C)(C)C)c1nnc(C)n1-2 [JQ1] + COc1cccc2cc(-c3nc([C@H]4CC[C@H](C(=O)O)CC4)n4ncnc(N)c34)[nH]c12 [OSI-027] (partner 0.5 µM)
### Response met

### Prompt Below 0.4 on relative viability? Entry Cc1sc2c(c1C)C(c1ccc(Cl)cc1)=N[C@@H](CC(=O)OC(C)(C)C)c1nnc(C)n1-2 [JQ1] + COc1cc2c(Oc3ccc(NC(=O)C4(C(=O)Nc5ccc(F)cc5)CC4)cc3F)ccnc2cc1OCCCN1CCOCC1 [Foretinib] (partner 0.25 µM)
### Response not met

### Prompt Below 0.4 on relative viability? Entry Cc1sc2c(c1C)C(c1ccc(Cl)cc1)=N[C@@H](CC(=O)OC(C)(C)C)c1nnc(C)n1-2 [JQ1] + Cc1nc(NC(=O)N2CCC[C@H]2C(N)=O)sc1-c1ccnc(C(C)(C)C(F)(F)F)c1 [Alpelisib] (partner 2 µM)
### Response not met

### Prompt Below 0.4 on relative viability? Entry Cc1sc2c(c1C)C(c1ccc(Cl)cc1)=N[C@@H](CC(=O)OC(C)(C)C)c1nnc(C)n1-2 [JQ1] + N=C(N)NC(=N)NCCc1ccccc1 [Phenformin] (partner 250 µM)
### Response met
